assay_info: Protein binding in plasma (unknown origin)
Format: ADME, cell-free
conditions_used: read-out: PPB (converted)
observed_property: fraction unbound

Task item: Using the record for "C[C@@H]1C[C@H](C)CN(S(=O)(=O)c2ccc3c(c2)/C(=N\O)c2cc(S(=O)(=O)N4C[C@H](C)C[C@H](C)C4)ccc2/C3=N/O)C1" , report its fraction unbound.
Reply: 0.002

###

subject_of_test: Cytochrome P450 2C9 (Homo sapiens)
Sequence (P11712 whole entry): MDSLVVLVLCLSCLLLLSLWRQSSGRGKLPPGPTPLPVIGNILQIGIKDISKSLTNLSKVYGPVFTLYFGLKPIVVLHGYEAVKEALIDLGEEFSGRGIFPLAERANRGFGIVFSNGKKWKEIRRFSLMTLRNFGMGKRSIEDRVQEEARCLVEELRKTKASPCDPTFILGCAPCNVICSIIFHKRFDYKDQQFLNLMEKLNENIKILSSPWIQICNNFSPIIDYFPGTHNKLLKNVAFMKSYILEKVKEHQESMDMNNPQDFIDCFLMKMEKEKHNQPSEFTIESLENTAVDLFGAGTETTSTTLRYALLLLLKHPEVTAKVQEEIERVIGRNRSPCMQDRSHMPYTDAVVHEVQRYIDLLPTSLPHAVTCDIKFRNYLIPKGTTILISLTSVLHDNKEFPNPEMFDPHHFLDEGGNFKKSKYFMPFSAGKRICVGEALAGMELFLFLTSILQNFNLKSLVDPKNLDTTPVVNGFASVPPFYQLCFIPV
observed_property: pIC50
In textbook form, pIC50 equals minus log to base ten of the concentration in mol/L.

Task item: Using the record for "C[C@@H]1C[C@H](C)CN(S(=O)(=O)c2ccc3c(c2)/C(=N\O)c2cc(S(=O)(=O)N4C[C@H](C)C[C@H](C)C4)ccc2/C3=N/O)C1" , report its pIC50.
Reply: 5.25
